Ki, UniProt P41144, per-entry values.
Sequence (P41144 whole entry): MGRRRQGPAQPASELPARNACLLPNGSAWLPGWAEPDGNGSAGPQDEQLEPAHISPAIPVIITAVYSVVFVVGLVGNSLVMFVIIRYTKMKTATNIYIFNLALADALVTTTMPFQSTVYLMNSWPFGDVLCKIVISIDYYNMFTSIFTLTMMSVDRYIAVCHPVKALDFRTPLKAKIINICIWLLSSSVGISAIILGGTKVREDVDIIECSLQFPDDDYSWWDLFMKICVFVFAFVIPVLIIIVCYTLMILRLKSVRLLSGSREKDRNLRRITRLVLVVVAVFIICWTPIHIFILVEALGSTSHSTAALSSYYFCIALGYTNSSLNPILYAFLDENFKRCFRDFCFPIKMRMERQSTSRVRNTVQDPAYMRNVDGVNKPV
State the answer as a number, implicitly in nM.

1) COc1ccc2c3c1O[C@H]1/C(=N\OCC(=O)NCCCOCCOCCOCCCNC(=O)CCCCCn4cc(C(=O)c5cccc6ccccc56)c5ccccc54)CC[C@@]4(O)[C@@H](C2)N(C)CC[C@]314 : 186
2) C[C@@H](NC(=O)[C@@H](N)Cc1ccc(O)cc1)C(=O)NCC(=O)N[C@@H](Cc1ccccc1)C(N)=O : 173
3) COc1ccc2c3c1O[C@H]1/C(=N\OCC(=O)NCCCCCCN)CC[C@@]4(O)[C@@H](C2)N(C)CC[C@]314 : 380
4) COc1ccc2c3c1O[C@H]1/C(=N\OCC(=O)NCCCOCCOCCOCCCN)CC[C@@]4(O)[C@@H](C2)N(C)CC[C@]314 : 503
5) C[C@@H](NC(=O)[C@@H](N)Cc1ccc(O)cc1)C(=O)NCC(=O)N[C@@H](Cc1ccccc1)C(=O)NCCCC(=O)NCCCCCn1cc(C(=O)c2cccc3ccccc23)c2ccccc21 : 50

q: Field request: Ki | item: COc1ccc2c3c1O[C@H]1/C(=N\OCC(=O)NCCCCCCNC(=O)CCCCCn4cc(C(=O)c5cccc6ccccc56)c5ccccc54)CC[C@@]4(O)[C@@H](C2)N(C)CC[C@]314
a: 172

q: Field request: Ki | item: C[C@@H](NC(=O)[C@@H](N)Cc1ccc(O)cc1)C(=O)NCC(=O)N[C@@H](Cc1ccccc1)C(=O)NCCC(=O)NCCCCCn1cc(C(=O)c2cccc3ccccc23)c2ccccc21
a: 151

q: Field request: Ki | item: C[C@@H](NC(=O)[C@@H](N)Cc1ccc(O)cc1)C(=O)NCC(=O)N[C@@H](Cc1ccccc1)C(=O)NCC(=O)NCCCCCn1cc(C(=O)c2cccc3ccccc23)c2ccccc21
a: 63

----------
Subject Of Test: Cannabinoid receptor (Rattus norvegicus, UniProt Q9QZN9+P20272)
Assay Method Text: Displacement of [3H]JWH-018 from CB1R/CB2R in Wistar rat brain membranes after 60 mins by liquid scintillation analysis
Format: cell membranes
Measured Parameter: Ki

A selection of reference data follows.
1) C[C@@H](NC(=O)[C@@H](N)Cc1ccc(O)cc1)C(=O)NCC(=O)N[C@@H](Cc1ccccc1)C(=O)NCC(=O)NCCCCCn1cc(C(=O)c2cccc3ccccc23)c2ccccc21 : 251 nM
2) CCCCCn1cc(C(=O)c2cccc3ccccc23)c2ccccc21 : 3.4 nM
3) COc1ccc2c3c1O[C@H]1/C(=N\OCC(=O)NCCCOCCOCCOCCCNC(=O)CCCCCn4cc(C(=O)c5cccc6ccccc56)c5ccccc54)CC[C@@]4(O)[C@@H](C2)N(C)CC[C@]314 : 183 nM
4) NCCCCCn1cc(C(=O)c2cccc3ccccc23)c2ccccc21 : 190 nM
5) CC(=O)NCCCCCn1cc(C(=O)c2cccc3ccccc23)c2ccccc21 : 145 nM
6) CC(C)C[C@H](NC(=O)[C@H](Cc1ccccc1)NC(=O)[C@H](CCCCN)NC(=O)[C@H](Cc1ccccc1)NC(=O)[C@H](CC(N)=O)NC(=O)[C@@H](NC(=O)[C@@H]1CCCN1)C(C)C)C(=O)N[C@@H](CO)C(=O)N[C@@H](Cc1cnc[nH]1)C(=O)O : 2793 nM

q: Field request: Ki | item: COc1ccc2c3c1O[C@H]1/C(=N\OCC(=O)NCCNC(=O)CCCCCn4cc(C(=O)c5cccc6ccccc56)c5ccccc54)CC[C@@]4(O)[C@@H](C2)N(C)CC[C@]314
a: 255 nM

q: Field request: Ki | item: O=C(O)CCCCCn1cc(C(=O)c2cccc3ccccc23)c2ccccc21
a: 247 nM

q: Field request: Ki | item: COc1ccc(C(=O)c2c(C)n(CCN3CCOCC3)c3cc(I)ccc23)cc1
a: 27 nM
